Reference for the values: the Human Domainome abundance scans (Beltran et al. 2025)

B1: E3 ubiquitin-protein ligase NEDD4-like, residues 539 to 589; numbered along this chain, Q96PU5 (parent)
chain: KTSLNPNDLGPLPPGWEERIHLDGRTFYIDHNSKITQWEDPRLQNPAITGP

Variants of: B1
test.description: abundance fitness (aPCA) (normalised: wild type 0, dead -1); higher = more abundant; growth selection in yeast, the domain comes from the species named
condition.context: Homo sapiens
endpoint.label: abundance fitness

Guide cases for abundance fitness, answers given:
>>> value_observed("D8C")
0.033
>>> value_observed("G24A")
-0.608
>>> value_observed("H31R")
-0.156
>>> value_observed("L43G")
-0.086
>>> value_observed("D23L")
-0.548
>>> value_observed("R19H")
-0.423

Reported abundance fitness of "L22W" : -0.167

Reported abundance fitness of "P46Y" : -0.317

Reported abundance fitness of "W16T" : -0.565

Reported abundance fitness of "R25G" : -0.265

Reported abundance fitness of "N7W" : -0.4
